The origin of these recorded values is patent US20240059799A1.

In this section we review reported TF-1 NF-κB reporter cell bioassay IC50 values for a set of binders.
- study target: T1, recombinant human TL1A (human, UniProt O95150 71-251)
- T1 chain: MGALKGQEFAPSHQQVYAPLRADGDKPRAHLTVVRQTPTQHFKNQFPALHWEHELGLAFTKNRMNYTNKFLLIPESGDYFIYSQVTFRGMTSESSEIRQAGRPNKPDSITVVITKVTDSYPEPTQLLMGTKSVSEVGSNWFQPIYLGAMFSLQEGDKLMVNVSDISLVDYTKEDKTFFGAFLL
- experiment description: cell-based or functional assay
Kindly provide the numeric value in nM only, without the unit symbol.

binder="TL1A-0275 (antibody, human IgG1, kappa, V domains shown, human IgG1 effector-function-minimized/kappa) VH: QVQLVQSGAEVKKPGASVKVSCKASGYDFSYYGISWVRQAPGQGLEWMGWISTYNTGTHYAPSLQGRVTMTTDTSTSTAYMELRSLRSDDTAVYYCARESYYGSGAHRGGMDVWGQGTTVTVSS VL: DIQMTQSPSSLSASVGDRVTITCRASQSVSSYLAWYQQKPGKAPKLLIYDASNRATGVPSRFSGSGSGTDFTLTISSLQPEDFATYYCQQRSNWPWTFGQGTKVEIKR" unit_of_measure=nM meas_value=24.7

The record that follows has no TF-1 NF-κB reporter cell bioassay IC50 shown yet.
[Q] TF-1 NF-κB reporter cell bioassay IC50 for TL1A-0262 (antibody, human IgG1, kappa, V domains shown, human IgG1 effector-function-minimized/kappa) VH: QVQLVQSGAEVKKPGASVKVSCKASGYDYTYYGISWVRQAPGQGLEWMGWISTYNTGTHYAQKLQGRVTMTTDTSTSTAYMELRSLRSDDTAVYYCARESYYGSGAFRGGMDVWGQGTTVTVSS VL: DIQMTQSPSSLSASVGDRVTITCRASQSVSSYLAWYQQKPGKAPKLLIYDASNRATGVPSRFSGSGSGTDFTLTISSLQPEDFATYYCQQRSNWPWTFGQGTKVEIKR ?
[A] 43.9
